- Test system: CCRF-CEM leukemia
- experiment: NCI-60 one-dose screen, 48 h (100 = growth as untreated, 0 = no growth, -100 = all killed)
- conditionParameters: 10 µM unless noted
About 83,000 compounds went through this panel and 20% of them were active in at least one assay; those are over-represented in the sample as a whole.
Each record here notes measured growth.
Please give a number only; it is taken to be in %.

Use these answered entries as a reference point.
CC1=CCC2C1CC=C(C)C(CC[C@H]1[C@@](C)(O)CCC3OC(C)(C)[C@H](OC(=O)c4ccccc4)CC[C@@]31C)C2(C)C (stereo not given in full) ... 99.6
CN(C)c1ccc(/C=C\c2cccc[n+]2C)cc1 ... 49.6
C#CCNc1nc(NCCNC(=O)CCl)nc(N(C)CCCCc2ccccc2)n1 ... 23.8
c1ccc2c(N=NSc3ncnc4nc[nH]c34)c3ccccc3nc2c1 ... -4.86
NS(=O)(=O)c1ccc(CCn2c(SCC(=O)N/N=C/c3cc4ccccc4[nH]3)nc3ccccc3c2=O)cc1 ... 35

# lookup: growth of `Brc1ccsc1Br`
102

Queued: `O=C(Cc1ccc([N+](=O)[O-])cc1)Oc1ccccc1`
99.3

Queued: `C#CCO[C@H]1CC[C@H](OCC#C)[C@@H]2[C@H]1[C@H]1C[C@@H]3[C@@]4(C)CCC[C@@](C)(C(=O)OC)[C@@H]4CC[C@@]23C=C1C(C)C`
-52.9

Queued: `CNCCCn1c2c(c3ccc(Cl)cc3c1=O)C(=O)c1cc(OC)cnc1-2`
-22.5

Queued: `COc1ccc2nc(-c3ccc(-c4noc(-c5ccc(Cl)cc5)n4)cc3)[nH]c2c1`
57

###

- Test system: NCI/ADR-RES ovarian
- experiment: NCI-60 one-dose screen, 48 h (100 = growth as untreated, 0 = no growth, -100 = all killed)
- conditionParameters: 10 µM unless noted
Compounds without any hit were thinned out: in the full panel of roughly 83,000, 20% have a hit. Activity calls are given as the source filed them. The calls were made as follows: active = growth percent below 10; inactive = the rest.
readoutName: growth

Use these answered entries as a reference point.
C=C(C)[C@@H]1CC[C@]2(C(=O)O)CC[C@]3(C)[C@H](CC[C@@H]4[C@@]5(C)C[C@@H](CC#Cc6ccc(C(C)=O)s6)[C@H](O)C(C)(C)[C@@H]5CC[C@]43C)[C@@H]12 ... 76.3% (inactive)
Cc1ccccc1Nc1n[nH]c(Cc2ccccc2)n1 ... 106% (inactive)
CC(=O)Oc1ccccc1C(=O)Nc1ncc([N+](=O)[O-])s1 ... 20.6% (inactive)
CN1C(=O)C(C2=NNC(c3ccccc3C(=O)O)C2)C(=O)N(C)C1=O (stereo not given) ... 108% (inactive)
CCN1C(=O)/C(=C/N2N=C(c3ccc(Cl)cc3)CC2c2ccc(OC)cc2)SC1=S (stereo not given) ... 96.8% (inactive)
NC(=S)N1N=C(c2ccc(Cl)cc2)CC1c1cc2ccccc2[nH]c1=O (stereo not given) ... 108% (inactive)
CN(C)CCCn1c(=O)c2cc([N+](=O)[O-])ccc2c2cnc3[nH]ccc3c21 ... 51.7% (inactive)
CCn1c(Cc2ccccc2Nc2c(Cl)cccc2Cl)nnc1SCC(=O)Nc1ccccc1C(F)(F)F ... 87.4% (inactive)

# lookup: growth of `CC(C)CCSc1nc(-c2ccc(F)cc2)c(C#N)c(N2CCCCC2)n1`
99.2% (inactive)

Queued: `CC(C)c1ccc(-c2cnc3nonc3n2)cc1`
19.9% (inactive)

###

- System: 786-0 renal
- experiment: NCI-60 one-dose screen, 48 h
- conditionParameters: 10 µM unless noted
The panel holds about 83,000 compounds, 20% with a hit somewhere; the sample as a whole holds those more often. Calls of active or inactive are those of the source. Rule for the calls: active = growth percent below 10; inactive = the rest.
Assign a class; possible classes are active, inactive

Worked examples, 5 compounds total:
O=S1(=O)NCCN1CCNc1nccc(-c2c(-c3cccc(O)c3)nc3sccn23)n1 ... inactive
CCCCCCCCCCCC1=NC(C)(C)CN1CC(C)O (centres undefined) ... inactive
CCN1C(=O)/C(=C/N2N=C(c3ccc(Cl)cc3)CC2c2ccc(OC)cc2)SC1=S (centres undefined) ... inactive
COc1cc(C)c(Cl)cc1C1=NN(c2ccc(S(N)(=O)=O)cc2)C(/C=C/c2ccccc2)C1 (centres undefined) ... inactive
CCc1c(C)c2ccc(O)c(-c3cc(-c4ccccc4)c(C#N)c(=O)[nH]3)c2oc1=O ... inactive

Shifting focus to the compound that follows.
What outcome does the record of this test show for `COc1cc2ncnc(Nc3ccc(S(=O)(=O)Nc4cc(C)on4)cc3)c2cc1OCCCN1CCN(c2ccc([N+](=O)[O-])cc2)CC1` ?
inactive

###

- System: MALME-3M melanoma
- experiment: NCI-60 one-dose screen, 48 h (100 = growth as untreated, 0 = no growth, -100 = all killed)
- conditionParameters: 10 µM unless noted
Compounds without any hit were thinned out: in the full panel of roughly 83,000, 20% have a hit.
readoutName: growth (%)
Please give a number only; it is taken to be in %.

O=S(=O)(Nc1ccc2ccccc2c1)N1CCCCC1 ... 63.3
O=C1CCCN1C(O)CCN(Cc1ccccc1)Cc1ccc(Cl)cc1 (centres undefined) ... 109
CC(C)(C)[Si](C)(C)OC1[C@@H](O[Si](C)(C)C(C)(C)C)[C@@H](CNC(=O)NC(=O)NC(=O)CI)O[C@H]1n1cnc2c(NC(=O)Nc3ccccc3)ncnc21 (some centres undefined) ... -83.3
Cc1ccc(C)c(NC(=O)c2sc3c(=O)[nH]cnc3c2C)c1 ... 62.6
COc1ccc(CNc2c3ccccc3nc3ccc(OC)cc23)cc1 ... 7.06
CCc1onc(-c2ccc(OC)cc2)c1-c1ccccc1OCCN(CC)CC ... 97.7
CC(=O)Oc1c(Cl)c(Cl)c(Cl)c(Cl)c1Cl ... 91.7
Clc1ccc(-c2cnc3c(-c4ccnc(N5CCNCC5)c4)cnn3c2)cc1 ... -37.5

Let us move to another entry and its growth.
# lookup: growth of `COc1cnc2c(c1)C(=O)c1c-2n(CCCNC(C)C)c(=O)c2cc(Cl)ccc12`
-73.4

###

- System: NCI-H23 lung
- experiment: NCI-60 one-dose screen, 48 h (100 = growth as untreated, 0 = no growth, -100 = all killed)
- conditionParameters: 10 µM unless noted
The panel holds about 83,000 compounds, 20% with a hit somewhere; the sample as a whole holds those more often. Calls of active or inactive are those of the source. Rule for the calls: active = growth percent below 10; inactive = the rest.
Each record here notes measured growth.

# lookup: growth of `CCN(CCC#N)c1ccccc1`
106% (inactive)

Queued: `COc1ccc2[nH]cc(C3(c4c[nH]c5ccc(OC)cc45)C(=O)Nc4ccc(Cl)cc43)c2c1`
80.3% (inactive)

###

- Tested on: SF-295 CNS
- experiment: NCI-60 one-dose screen, 48 h
- conditionParameters: 10 µM unless noted
This is part of a sample that, as a whole, favours compounds with a hit. Of some 83,000 tested, about 20% had one in any assay. Activity calls are given as the source filed them. The calls were made as follows: active = growth percent below 10; inactive = the rest.
Assign a class; possible classes are t = active, f = inactive

Worked examples, 5 compounds total:
c1ccc2oc(-c3cnc4nonc4n3)cc2c1 ... f
C[Si](C)(C)C(c1ccccc1)c1ccccc1 ... f
CN(C)CCNC(=O)n1cc(-c2ccncc2)c(-c2cc(O)cc(Cl)c2)n1 ... f
O=C1CCCN1C(O)CCN(Cc1ccccc1)Cc1ccc(Cl)cc1 (configuration not stated) ... f
CCOC(=O)c1ccc2c(c1)[n+](=O)c(C(=O)c1ccc3ccccc3c1)c(C(F)(F)F)n2[O-] ... t

What outcome does the record of this test show for `Nc1c(N)c2ccccc2c2ccccc12` ?
f

Queued: `N/C(=C\C(=O)n1nc(-c2ccccc2)cc1N)c1ccccc1`
f

Queued: `CCOC(=O)Cc1cc(Br)c(OCc2ccccc2)c(Br)c1`
f

Queued: `COc1cnc2c(c1)C(=O)c1c-2n(CCCN2CCCC2)c(=O)c2cc(Cl)ccc12`
f

Queued: `NC(N)=N/N=C/c1cccc(Cl)c1Cl`
f

Queued: CC(C)=CC[C@@H]1CC2(CC=C(C)C)C(=O)C(OC3(C(=O)c4ccccc4)C(=O)C4(CC=C(C)C)C[C@@H](CC=C(C)C)C(C)(C)C(CC=C(C)C)(C4=O)C3=O)(C(=O)c3ccccc3)C(=O)C(CC=C(C)C)(C2=O)C1(C)C (some centres not stated)
t

Queued: `COc1cnc2c(c1)C(=O)c1c-2n(CCCNC(C)C)c(=O)c2cc(Cl)ccc12`
t

###

- Test system: DU-145 prostate
- experiment: NCI-60 one-dose screen, 48 h (100 = growth as untreated, 0 = no growth, -100 = all killed)
- conditionParameters: 10 µM unless noted
Compounds without any hit were thinned out: in the full panel of roughly 83,000, 20% have a hit. Active and inactive are the calls of the source. The calls were made as follows: active = growth percent below 10; inactive = the rest.
Each record here notes measured growth.

Use these answered entries as a reference point.
NS(=O)(=O)c1ccc(CCn2c(SCC(=O)N/N=C/c3cc4ccccc4[nH]3)nc3ccccc3c2=O)cc1 ... 64.8% (inactive)
O=C(Nc1cccc(N=Cc2c(O)ccc3ccccc23)c1)c1ccccc1 ... 98.2% (inactive)
COc1ccc(CC2c3cc(OC)c(OC)cc3CC[N+]2(C)CCC(=O)OCCCCCOC(=O)CC[N+]2(C)CCc3cc(OC)c(OC)cc3C2Cc2ccc(OC)c(OC)c2)cc1OC (stereo not given) ... 99.8% (inactive)
CC(=O)CC(c1ccc([N+](=O)[O-])cc1)c1c(O)c2ccccc2oc1=O (stereo not given) ... 106% (inactive)
Cc1c2c(cc3c1[nH]c1ccccc13)C=NCC2 ... 94.9% (inactive)
NC(=O)N/N=C\c1ccc([N+](=O)[O-])o1 ... 105% (inactive)
S=C(S)Oc1cccc2cccnc12 ... 105% (inactive)
Cc1cc(N)cc(C)c1-c1c(Br)cc(N)cc1Br ... 28.6% (inactive)

# lookup: growth of `O=C(c1ccccc1)C(CCc1ccccn1)CCc1ccccn1`
101% (inactive)

Queued: O=C1OCC2=C1C(c1ccccc1)c1cc3c(cc1N2CCO)OCO3 (stereo not given)
69.4% (inactive)
